Can you tell me solubility for the items I'm about to list?
Assay: physchem
Conditions: 23 °C, pH 6.5, fassif, thermodynamic from solid, FaSSIF (pH 6.5) solubility, FaSSIF pH 6.5, dose 5 mg/mL, 2-hour incubation, ambient temperature
Give bare numbers, in µg/mL.

Recorded results for 2 compounds are shown here.
1) COC(=O)N[C@H](C(=O)N[C@@H](Cc1ccc(C#Cc2cnc(N3CC4CCC(C3)N4C3COC3)nc2)cc1)[C@H](CN(Cc1c(F)cc(-c2ccn(C(F)F)n2)cc1F)NC(=O)[C@@H](NC(=O)OC)C(C)(C)C(F)(F)F)OC(=O)OCOC(=O)CC(C)(C)c1c(CC(=O)O)cc(C)cc1OP(=O)(O)O)C(C)(C)C(F)(F)F [Example 20] ... 220
2) COC(=O)N[C@H](C(=O)N[C@@H](Cc1ccc(C#Cc2cnc(N3CC4CCC(C3)N4C3COC3)nc2)cc1)[C@H](CN(Cc1c(F)cc(-c2ccn(C(F)F)n2)cc1F)NC(=O)[C@@H](NC(=O)OC)C(C)(C)C(F)(F)F)OC(=O)OCOC(=O)CC(C)(C)c1c(OP(=O)(O)O)cc(C(=O)O)cc1C(=O)O)C(C)(C)C(F)(F)F [Example 1] ... 5060

// switching to the query compound
Return reported solubility; argument: COC(=O)N[C@H](C(=O)N[C@@H](Cc1ccc(C#Cc2cnc(N3CC4CCC(C3)N4C3COC3)nc2)cc1)[C@H](CN(Cc1c(F)cc(-c2ccn(C(F)F)n2)cc1F)NC(=O)[C@@H](NC(=O)OC)C(C)(C)C(F)(F)F)OC(=O)OCOC(=O)CC(C)(C)c1c(C)cc(C(=O)O)cc1OP(=O)(O)O)C(C)(C)C(F)(F)F [Example 2] 680

FYI, the data here is from patent US20250051375A1.
